meta.source: patent USRE46585

test-target: T1, FcRn-p3 fusion protein (human, UniProt P55899 24-297; P61769 21-119)
T1 construct: baculovirus expressed; coated on ELISA wells; not shown: amino terminal part of bacteriophage p3 protein and CVDE protein
T1 sequence (P55899 24-297, chain 1 of 2): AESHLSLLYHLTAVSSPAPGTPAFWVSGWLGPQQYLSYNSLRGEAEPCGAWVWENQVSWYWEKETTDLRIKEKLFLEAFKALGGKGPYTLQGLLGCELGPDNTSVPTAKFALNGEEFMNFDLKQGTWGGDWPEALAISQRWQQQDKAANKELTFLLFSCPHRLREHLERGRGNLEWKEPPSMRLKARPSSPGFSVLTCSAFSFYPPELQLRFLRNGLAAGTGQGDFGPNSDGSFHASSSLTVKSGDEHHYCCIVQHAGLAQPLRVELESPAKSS
T1 sequence (P61769 21-119, chain 2 of 2): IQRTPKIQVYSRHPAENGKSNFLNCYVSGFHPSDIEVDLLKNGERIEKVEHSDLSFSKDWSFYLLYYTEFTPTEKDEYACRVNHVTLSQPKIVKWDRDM
test-protocol: phage ELISA pH6
readout-kind: Ratio/Fc-H (fold)
Provide the reading as a plain figure in fold.

Returns the measured Ratio/Fc-H for the input binder. Input: C3A_21 (other, EU numbering) CPPCPAPELLGGPSVFLFPPKPKDTLMISRTPEVTCVVVDVSHEDPEVKFNWYVDGVEVHNAKTKPREEQYNSTYRVVSVLTVLHQDWLDGKEYKCKVSNKALPVPIEKTISKAKGQPREPQVYTLPPSRDELTKNQVSLTCLVKGFYPSDIAVEWESNGQPENNYKTTPPVLDPDGSFFLYSKLTVDKSRWQQGNVFSCSVMHEALHYHYTQKSLSLSPGK
3

Please answer likewise for T5A_57 (other, EU numbering) CPPCPAPELLGGPSVLLFPPKPKDTLMISRTPEVTCVVVDVSHEDPEVKFNWYVDGVEVHNAKTKPREEQYNSTYRVVSVLTVLHQDWLDGKEYKCKVSNKALPVPIEKTISKAKGQPREPQVYTLPPSRDELTKNQVSLTCLVKGFYPSDIAVEWESNGQPENNYRTTPPVLDSDGSFFLYSKLTVDKSRWQQGNVFSCSVMHEALHYHYTQKSLSLSPGK
4.9
